# Test system: OVCAR-8
# ASSAY NOTES: NCI tumour cell line growth inhibition, 48 h
Activity calls are given as the source filed them. Cut-off read from the data, not from the text of the source: active = GI50 up to about 1.1 µM and inactive = higher.
Please go through the items and note down their GI50.

Answered cases to consult:
{"columns": ["COMPOUND", "GI50"],
 "data": [
  ["CCOC(=O)/C=C/C(Br)=C(Br)/C=C/C(=O)OCC", "4.79 µM (inactive)"],
  ["CCC[C@H]1O[C@@H]2CC(=O)O[C@@H]2C2=C1C(=O)C=CC2=O", "> 47.4 µM (inactive)"],
  ["CC(=O)Nc1ccc(S(=O)(=O)/N=c2/sc(S(N)(=O)=O)nn2C)cc1", "> 100 µM (inactive)"]
]}

Note: attention shifts to another entry.
Entry COCOc1c(C(OCOC)c2cnc(Sc3ccccc3)n2C)ccc(OC)c1OC (centres undefined) , GI50 reported as > 100 µM (inactive)

Values compiled from ChEMBL document CHEMBL1201862.
